Exercise: state measured EC50 for each of the binders provided.
Molecular target: T1, ZIKV E DIII protein (residues 301-403) (Zika virus (strain GZ01))
T1 chain: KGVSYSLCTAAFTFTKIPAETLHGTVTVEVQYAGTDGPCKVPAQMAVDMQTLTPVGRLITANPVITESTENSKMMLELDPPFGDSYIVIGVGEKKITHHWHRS
Experiment: ELISA
Write the answer as a number in ng/mL, unit excluded.

Asked: Data request, read-out EC50, for 2H-1 (antibody, V domains shown) VH: QVQLVQSGAEVKKPGASVKVSCKASGYTFTSYDINWVRQATGQGLEWMGWMNPNSGNTGYAQKFQGRVTMTRNTSISTAYMELSSLRSEDTAVYYCARVSSGSYYGSYYYYYYGMDVWGQGTTVTVSS VL: SYELTQPPSASGTPGQRVTISCSGSSSNIGNNYVHWYQQLPGSAPKLLIYRNNQRPSGVPDRFSGSKSGTSGSLAISGLRSEDEADYYCASWDDSLSGHWVFGGGTKVTVL
Given back: 3.4

Asked: Let us now turn to 2H-10 (antibody, V domains shown) VH: QVQLVQSGVEVKKPGASVEVSCQASGITSTSYDINWVRQANGQGLEWMGWMNPNSGNTGYAQKFQGRVTMTRNTSISTAYMELSSLRSEDTAVYYCARVSSGSYYGSYYYYYYGMDVWGQGTTVTVSS VL: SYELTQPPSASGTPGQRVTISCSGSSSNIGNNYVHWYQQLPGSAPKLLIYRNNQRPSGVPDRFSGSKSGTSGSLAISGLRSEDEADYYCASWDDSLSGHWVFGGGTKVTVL
Given back: 11.2

Asked: Can you handle 2H-5 (antibody, V domains shown) VH: QVQLVQSGAEVKKPGASVNVSCKASGYTFTMYDINWVRQTTGQGLEWMGWMNPNSGNTGYAQKFQGRVTMTRNTSISTAYMELSSLRSEDTAVYYCARVSSGSYYGSYYYYYYGMDVWGQGTTVTVSS VL: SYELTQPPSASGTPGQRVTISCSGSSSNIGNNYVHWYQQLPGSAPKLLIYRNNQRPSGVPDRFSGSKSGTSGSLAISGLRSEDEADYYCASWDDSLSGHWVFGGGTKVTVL next?
Given back: 4.8

Asked: Repeat for the following binder: 2H-9 (antibody, V domains shown) VH: EVQLVQSGGKVVELGASVKVSCKASGYTFTTYDINWVRQATGQGLEWMGWMNPNSGNTGYAQKFQGRVTMTRNTSISTAYMELSSLRSEDTAVYYCARVSSGSYYGSYYYYYYGMDVWGQGTTVTVSS VL: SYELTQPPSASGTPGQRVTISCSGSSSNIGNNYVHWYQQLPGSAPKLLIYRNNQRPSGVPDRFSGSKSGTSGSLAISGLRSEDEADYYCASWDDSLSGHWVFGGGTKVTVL
Given back: 5.9

Asked: What do you get for ZK2B10 (antibody, V domains shown) VH: EVQLVQSGAEVKKPGASVKVSCKASGYTFTSGHTFPSYDINWVRQATGQGLEWMGWMNPNRGNTGYAQKFQGRVTMTRNTSINTAYMELSSLRSEDTAVYYCARVRSGTNYGSYYYYYYGMDVWGQGTTVTVSS VL: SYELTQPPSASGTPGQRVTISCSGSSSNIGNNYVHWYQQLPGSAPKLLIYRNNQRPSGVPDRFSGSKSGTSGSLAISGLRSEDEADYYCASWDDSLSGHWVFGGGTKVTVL ?
Given back: 7.1

Asked: Note, next up: 2H-15 (antibody, V domains shown) VH: EVQLVQSGAEVKKPGASVKVSCKASGYTFTSYDVNWVRQATGQGLEWMGWMNPNSGNTGYAQKFQGRVTMTRNTSISTAYMELSSLRSEDTAVYYCARVSSGSYYGSYYYYYYGMDVWGQGTTVTVSS VL: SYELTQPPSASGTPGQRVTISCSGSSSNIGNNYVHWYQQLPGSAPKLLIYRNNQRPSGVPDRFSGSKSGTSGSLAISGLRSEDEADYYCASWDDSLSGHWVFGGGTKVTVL
Given back: 10
